Measured values drawn from the supplement of paper PMC9170038 for this set.

Measured apparent KD of MS2 coat protein accompanies every entry in the list below.
- System: MS2 coat protein
- Test description: apparent KD of MS2 coat protein; designed switch direction (-1 OFF switch, 1 ON switch): -1; higher = weaker reporter binding
- Details: input ligand: FMN 200 uM
Parameter measured: apparent KD of MS2 coat protein

Sequence content | Data value
UCGUGAUUAGAGGAUAUAUUUUGAGUCAGAACAAUAGAAGGCUAAACAUGAGGAUCACCCAUGUAUAUGUGUAA [JR_Ex6_Sub062] (Eterna round: R97, puzzle: Exclusion 6) | 140 nM
GCAGCUAAGUGUAAUAACACAAUACAUGAGGAUCACCCAUGUGAGGAUAUGGACUGGAUUACAGUCCAGAAGGCACAAUGCUGC [Zipper Style 4] (Eterna round: R96, puzzle: Exclusion NG 3) | 17.2 nM
CCCUCACAUGAGGAUCACCCAUGUCAGGAUAUUCGAACGGUGUGUUUUUGGCCAGUUGGAAGAAGGGACAUAAA [Riinesbe] (Eterna round: R96, puzzle: Exclusion 1) | 278 nM
CACUUGGUAGGAUAUGAAGGGAGGAACAUGAGGAUCACCCAUGUCCUGGAAUCCAGUCCGUCAGAAGGACCUGAGC [Eternabot (L1) Solution 44] (Eterna round: R97, puzzle: Exclusion 5) | 24.4 nM
UUAAUUAAUUAACGCAGCAAGAUCACAUGAGGAUCACCCAUGUAGGAUAUCAGCUCGAUUAGAGCUGAGAAGGACAUAGCUGCG [ExNG3/1-A1] (Eterna round: R96, puzzle: Exclusion NG 3) | 103 nM
CUUUUGUGAGGAUAUUAGUAGUAAAUAAAUAAAAUUACUACUGAGAAGGCACAUGAGGAUCACCCAUGUUCCUC [salish99_ex4_r3_041] (Eterna round: R96, puzzle: Exclusion 4) | 424 nM
UGAUUGUUUACCAGAUUAUACAUGAGGAUCACCCAUGUAGAUCCUACGUGCACGUUAUGCAGCUCGUCUUAUUCCCA [Sensor-V1 #73] (Eterna round: R97, puzzle: Sensor, turn-off variant 1) | 40.3 nM
GAAGUGCACAUGAGGAUCACCCAUGUGGGUGAGCCGUGCCUGAAGGAUAUGGCUCCCGAUGGAGACCAGAAGGUCAGUAAAUAA [Ededor] (Eterna round: R96, puzzle: Exclusion NG 3) | 367 nM
UACUUGUUAGGAUAUCUUACAUUUGCAUUAUAGCAACUAUUGGAGAAGGGACAUGAGGAUCACCCAUGUUUGGG [tap-tap-tappy16] (Eterna round: R97, puzzle: Exclusion 4) | 602 nM
CCAGCAAAUGUAAGGAUAUGCUGGUCCUUGGAUCAGCAGAAGGUACAUGAGGAUCACCCAUGUGUGAAAGCUGG [Eli bmx4 4.57] (Eterna round: R97, puzzle: Brourd's mod of Exclusion 4) | 674 nM
UUCCUCUCUUCUCUGUCUCACAUGAGGAUCACCCAUGUAACAUAGGAUAUGCUUGGUAUUUAAAUGCAGAAGGAUGUUAGUAUU [JR_ExcNG3_Sub082] (Eterna round: R96, puzzle: Exclusion NG 3) | 82.9 nM
